Item-by-item account of melting point

Returns the measured melting point for the input compound. Input: Cc1cc(=O)oc2ccc(OCC3CC(Cn4cnc5c(N6CCCCC6)ncnc54)=NO3)cc12 (stereo not shown) [4a] 180 to 182 °C

Now consider Cc1cc(=O)oc2cc(OCC3CC(Cn4cnc5c(N6CCOCC6)ncnc54)=NO3)ccc12 (stereo not shown) [4d] . 194 to 196 °C

Now consider O=c1cc(OCc2cc(Cn3cnc4c(N5CCCCC5)ncnc43)no2)c2ccccc2o1 [13h] . 161 to 163 °C

Now consider Cc1cc(=O)oc2ccc(OC(=O)C3CC(Cn4cnc5c(N6CCCC6)ncnc54)=NO3)cc12 (stereo not shown) . 192 to 193 °C

Now consider O=c1ccc2ccc(OCC3=NOC(n4cnc5c(N6CCCC6)ncnc54)C3)cc2o1 (stereo not shown) . 200 to 202 °C

Now consider O=c1ccc2ccc(OCc3cc(Cn4cnc5c(N6CCCCC6)ncnc54)on3)cc2o1 [15a] . 140 to 142 °C

Now consider O=c1ccc2ccc(OCC3=NOC(n4cnc5c(N6CCCCC6)ncnc54)C3)cc2o1 (stereo not shown) [18a] . 197 to 199 °C

====

Target: electric eel acetylcholinesterase (eeAChE) (Electrophorus electricus, UniProt O42275)
Sequence (O42275 24-633): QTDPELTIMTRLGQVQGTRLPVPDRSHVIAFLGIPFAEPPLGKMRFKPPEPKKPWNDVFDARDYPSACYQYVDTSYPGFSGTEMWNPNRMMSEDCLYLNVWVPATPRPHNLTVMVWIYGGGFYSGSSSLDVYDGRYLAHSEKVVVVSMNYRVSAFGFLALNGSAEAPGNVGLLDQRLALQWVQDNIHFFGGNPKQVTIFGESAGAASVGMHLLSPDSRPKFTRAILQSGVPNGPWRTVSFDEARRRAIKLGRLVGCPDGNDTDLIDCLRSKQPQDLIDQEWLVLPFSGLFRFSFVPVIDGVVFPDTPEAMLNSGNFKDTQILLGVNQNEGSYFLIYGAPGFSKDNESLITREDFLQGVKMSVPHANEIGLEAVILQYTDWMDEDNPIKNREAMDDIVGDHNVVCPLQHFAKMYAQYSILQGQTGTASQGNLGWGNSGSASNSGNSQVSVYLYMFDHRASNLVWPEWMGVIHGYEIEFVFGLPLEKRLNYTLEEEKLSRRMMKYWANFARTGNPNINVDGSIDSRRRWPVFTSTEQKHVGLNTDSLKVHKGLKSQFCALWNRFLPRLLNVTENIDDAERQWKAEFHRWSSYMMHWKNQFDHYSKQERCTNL
result_type: pIC50
The read-out pIC50 is expressed as -log10 of concentration in moles per litre.

molecule="Cc1cc(=O)oc2ccc(OCC3=NOC(Cn4cnc5c(Cl)ncnc54)C3)cc12 (stereo not drawn) [11b]" assayed_system="electric eel acetylcholinesterase (eeAChE) (Electrophorus electricus, UniProt O42275)" measured=5.23
molecule="Cc1cc(=O)oc2ccc(OCc3cc(Cn4cnc5c(N6CCOCC6)ncnc54)no3)cc12 [13b]" assayed_system="electric eel acetylcholinesterase (eeAChE) (Electrophorus electricus, UniProt O42275)" measured=5.51

API: value(readout= pIC50, system= electric eel acetylcholinesterase (eeAChE) (Electrophorus electricus, UniProt O42275), query= Cc1cc(=O)oc2cc(OCCC3CC(Cn4cnc5c(N6CCOCC6)ncnc54)=NO3)ccc12 (stereo not drawn) ) 5.11

====

Target: soybean lipoxygenase (Glycine max)
Construct: purchased Sigma Chemical, Co. (St. Louis, MO, USA)
Test: Soybean lipoxygenase inhibition in vitro
Assay type: biochemical
Settings: read-out: %LOX @ 100μΜ
Short version: inhibition at 100 µM at least 9% is criterion met, less is criterion not met.

compound="Cc1cc(=O)oc2cc(OCC3CC(Cn4cnc5c(N6CCOCC6)ncnc54)=NO3)ccc12 (centres unmarked)" assayed_system="soybean lipoxygenase (Glycine max)" category="criterion met"
compound="O=c1ccc2ccc(OCc3cc(Cn4cnc5c(N6CCOCC6)ncnc54)no3)cc2o1 [13f]" assayed_system="soybean lipoxygenase (Glycine max)" category="criterion met"
compound="Cc1cc(=O)oc2ccc(OCC3CC(Cn4cnc5c(N6CCCCC6)ncnc54)=NO3)cc12 (centres unmarked)" assayed_system="soybean lipoxygenase (Glycine max)" category="criterion not met"
compound="Cc1cc(=O)oc2cc(OCCC3CC(Cn4cnc5c(N6CCCC6)ncnc54)=NO3)ccc12 (centres unmarked)" assayed_system="soybean lipoxygenase (Glycine max)" category="criterion met"
compound="Cc1cc(=O)oc2cc(OCCC3CC(Cn4cnc5c(N6CCOCC6)ncnc54)=NO3)ccc12 (centres unmarked)" assayed_system="soybean lipoxygenase (Glycine max)" category="criterion not met"
compound="O=c1cc(OCC2CC(Cn3cnc4c(N5CCOCC5)ncnc43)=NO2)c2ccccc2o1 (centres unmarked)" assayed_system="soybean lipoxygenase (Glycine max)" category="criterion met"

Consider the additional compound presented here.
Decide: is the reported value of inhibition at 100 µM for Cc1cc(=O)oc2ccc(OCc3cc(Cn4cnc5c(N6CCOCC6)ncnc54)no3)cc12 [13b] equal to or greater than 9%? criterion met

====

Biological target: soybean lipoxygenase (Glycine max, UniProt P08170)
Construct: purchased Sigma Chemical, Co. (St. Louis, MO, USA)
Sequence (P08170 whole entry): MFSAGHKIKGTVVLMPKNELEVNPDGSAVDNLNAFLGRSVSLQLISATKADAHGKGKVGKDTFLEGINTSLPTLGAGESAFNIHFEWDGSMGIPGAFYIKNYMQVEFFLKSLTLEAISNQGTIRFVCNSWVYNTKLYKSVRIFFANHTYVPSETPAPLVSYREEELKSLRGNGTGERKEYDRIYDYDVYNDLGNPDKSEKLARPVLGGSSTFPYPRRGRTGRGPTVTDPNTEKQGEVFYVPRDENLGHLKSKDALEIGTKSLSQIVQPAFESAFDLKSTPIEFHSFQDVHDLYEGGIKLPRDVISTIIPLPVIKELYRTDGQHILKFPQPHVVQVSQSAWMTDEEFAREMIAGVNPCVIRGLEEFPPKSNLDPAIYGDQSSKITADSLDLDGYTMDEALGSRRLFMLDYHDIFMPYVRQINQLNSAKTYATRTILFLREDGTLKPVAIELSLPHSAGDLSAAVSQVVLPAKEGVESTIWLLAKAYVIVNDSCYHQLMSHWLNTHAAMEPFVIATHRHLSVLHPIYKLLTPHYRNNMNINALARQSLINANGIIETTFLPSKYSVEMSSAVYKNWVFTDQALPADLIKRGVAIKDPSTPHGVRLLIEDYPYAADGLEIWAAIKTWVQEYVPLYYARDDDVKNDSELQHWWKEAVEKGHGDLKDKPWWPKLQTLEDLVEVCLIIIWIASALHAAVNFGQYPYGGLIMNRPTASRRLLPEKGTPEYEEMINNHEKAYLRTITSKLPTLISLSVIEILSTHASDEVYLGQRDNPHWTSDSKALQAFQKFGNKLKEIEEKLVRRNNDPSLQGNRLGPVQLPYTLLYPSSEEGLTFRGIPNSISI
Test: Soybean lipoxygenase inhibition in vitro
Type: biochemical
Details: read-out: LOX IC50 μΜ
result_type: IC50 (µM)
Kindly provide the numeric value in µM only, without the unit symbol.

compound="O=c1cc(OCc2cc(Cn3cnc4c(N5CCOCC5)ncnc43)no2)c2ccccc2o1 [13i]" result_type=IC50 result_unit=µM measured=76
compound="O=C(Oc1ccc2oc(=O)ccc2c1)C1CC(Cn2cnc3c(N4CCOCC4)ncnc32)=NO1 (stereo not shown)" result_type=IC50 result_unit=µM measured=60
compound="Cc1cc(=O)oc2ccc(OC(=O)C3CC(Cn4cnc5c(N6CCCCC6)ncnc54)=NO3)cc12 (stereo not shown)" result_type=IC50 result_unit=µM measured=10
compound="O=c1ccc2ccc(OCc3cc(Cn4cnc5c(N6CCOCC6)ncnc54)on3)cc2o1 [15b]" result_type=IC50 result_unit=µM measured=100
compound="O=c1cc(OCc2cc(Cn3cnc4c(N5CCCCC5)ncnc43)no2)c2ccccc2o1 [13h]" result_type=IC50 result_unit=µM measured=55

Alright, here's another compound for you.
API: value(readout= IC50, system= soybean lipoxygenase (Glycine max, UniProt P08170), query= Cc1cc(=O)oc2cc(OCC3=NOC(Cn4cnc5c(N6CCCCC6)ncnc54)C3)ccc12 (stereo not shown) [11d] ) 48

====

Biological target: rat monoamine oxidase A (Rattus norvegicus, UniProt P21396)
Construct: from tissue
Sequence (P21396 1-526): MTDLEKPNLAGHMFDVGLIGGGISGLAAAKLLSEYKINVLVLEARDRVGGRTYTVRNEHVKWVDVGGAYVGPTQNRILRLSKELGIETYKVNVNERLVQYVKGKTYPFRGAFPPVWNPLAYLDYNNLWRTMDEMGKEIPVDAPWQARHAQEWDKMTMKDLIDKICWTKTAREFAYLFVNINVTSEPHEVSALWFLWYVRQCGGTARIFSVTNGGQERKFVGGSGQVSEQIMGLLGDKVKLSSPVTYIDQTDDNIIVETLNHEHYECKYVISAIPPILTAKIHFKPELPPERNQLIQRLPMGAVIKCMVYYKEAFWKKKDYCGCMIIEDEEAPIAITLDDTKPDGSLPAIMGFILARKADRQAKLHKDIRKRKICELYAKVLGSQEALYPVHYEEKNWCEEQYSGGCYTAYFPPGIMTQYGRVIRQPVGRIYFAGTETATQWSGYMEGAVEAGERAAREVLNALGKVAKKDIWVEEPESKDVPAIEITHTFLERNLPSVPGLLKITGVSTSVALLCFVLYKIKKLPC
Assay: Inhibition of MAO-A (spectrofluorimetric method)
Assay type: biochemical
Conditions: 10 μM compound
Text: 2.2.2.6 Inhibition Study on MAOs in vitro Inhibition of rat monoamine oxidase A and B was studied by means of a spectrofluorimetric method as previously detailed.
Short version: MAO-A (%) @ 10μΜ at least 20% is YES, less is NO.

compound="O=c1cc(OCc2cc(Cn3cnc4c(N5CCOCC5)ncnc43)no2)c2ccccc2o1 [13i]" assayed_system="rat monoamine oxidase A (Rattus norvegicus, UniProt P21396)" category=NO
compound="Cc1cc(=O)oc2ccc(OCc3cc(Cn4cnc5c(N6CCCCC6)ncnc54)no3)cc12 [13a]" assayed_system="rat monoamine oxidase A (Rattus norvegicus, UniProt P21396)" category=YES
compound="Cc1cc(=O)oc2ccc(OCc3cc(Cn4cnc5c(N6CCOCC6)ncnc54)no3)cc12 [13b]" assayed_system="rat monoamine oxidase A (Rattus norvegicus, UniProt P21396)" category=NO
compound="Cc1cc(=O)oc2ccc(OCC3=NOC(Cn4cnc5c(Cl)ncnc54)C3)cc12 (stereo not shown) [11b]" assayed_system="rat monoamine oxidase A (Rattus norvegicus, UniProt P21396)" category=NO
compound="Cc1cc(=O)oc2cc(OCC3=NOC(Cn4cnc5c(N6CCOCC6)ncnc54)C3)ccc12 (stereo not shown) [11f]" assayed_system="rat monoamine oxidase A (Rattus norvegicus, UniProt P21396)" category=NO

Decide: is the reported value of MAO-A (%) @ 10μΜ for Cc1cc(=O)oc2cc(OCCC3CC(Cn4cnc5c(N6CCOCC6)ncnc54)=NO3)ccc12 (stereo not shown) equal to or greater than 20%? YES

Now consider O=c1ccc2ccc(OCc3cc(Cn4cnc5c(N6CCCCC6)ncnc54)no3)cc2o1 [13e] . NO

====

Item-by-item account of melting point

compound="Cc1cc(=O)oc2cc(OCC3CC(Cn4cnc5c(N6CCCC6)ncnc54)=NO3)ccc12 (stereo not drawn)" measured="190 to 192 °C"
compound="O=c1ccc2ccc(OCc3cc(Cn4cnc5c(N6CCCC6)ncnc54)on3)cc2o1 [15c]" measured="172 to 173 °C"
compound="Cc1cc(=O)oc2ccc(OC(=O)C3CC(Cn4cnc5c(N6CCOCC6)ncnc54)=NO3)cc12 (stereo not drawn)" measured="188 to 189 °C"

Returns the measured melting point for the input compound. Input: O=c1ccc2ccc(OCc3cc(Cn4cnc5c(N6CCOCC6)ncnc54)on3)cc2o1 [15b] 185 to 187 °C

Now consider Cc1cc(=O)oc2cc(OCCC3CC(Cn4cnc5c(N6CCCC6)ncnc54)=NO3)ccc12 (stereo not drawn) . 178 to 180 °C

Now consider O=c1cc(OCC2CC(Cn3cnc4c(N5CCOCC5)ncnc43)=NO2)c2ccccc2o1 (stereo not drawn) . 158 to 160 °C

Now consider O=C(Oc1ccc2oc(=O)ccc2c1)C1CC(Cn2cnc3c(N4CCCCC4)ncnc32)=NO1 (stereo not drawn) . 175 to 177 °C

Now consider O=c1ccc2ccc(OCc3cc(Cn4cnc5c(N6CCOCC6)ncnc54)no3)cc2o1 [13f] . 174 to 175 °C

Now consider Cc1cc(=O)oc2cc(OCc3cc(Cn4cnc5c(N6CCOCC6)ncnc54)no3)ccc12 [13d] . 179 to 180 °C

Now consider O=c1ccc2ccc(OCC3=NOC(Cn4cnc5c(N6CCCCC6)ncnc54)C3)cc2o1 (stereo not drawn) [11g] . 184 to 185 °C

Now consider O=c1ccc2ccc(OCC3=NOC(n4cnc5c(N6CCOCC6)ncnc54)C3)cc2o1 (stereo not drawn) [18b] . 205 to 206 °C

Now consider Cc1cc(=O)oc2cc(OCc3cc(Cn4cnc5c(N6CCCCC6)ncnc54)no3)ccc12 . 165 to 167 °C

Now consider O=C(Oc1ccc2oc(=O)ccc2c1)C1CC(Cn2cnc3c(N4CCOCC4)ncnc32)=NO1 (stereo not drawn) . 184 to 185 °C

Now consider Cc1cc(=O)oc2cc(OCC3CC(Cn4cnc5c(N6CCCCC6)ncnc54)=NO3)ccc12 (stereo not drawn) . 186 to 187 °C

Now consider Cc1cc(=O)oc2ccc(OC(=O)C3CC(Cn4cnc5c(N6CCCCC6)ncnc54)=NO3)cc12 (stereo not drawn) . 179 to 181 °C

Now consider Cc1cc(=O)oc2cc(OCC3=NOC(Cn4cnc5c(N6CCCCC6)ncnc54)C3)ccc12 (stereo not drawn) [11d] . 144 to 145 °C

Now consider Cc1cc(=O)oc2ccc(OCC3=NOC(Cn4cnc5c(N6CCCCC6)ncnc54)C3)cc12 (stereo not drawn) [11a] . 148 to 150 °C

Now consider O=c1ccc2ccc(OCc3cc(Cn4cnc5c(N6CCCC6)ncnc54)no3)cc2o1 [13g] . 176 to 178 °C
